endpoint: melting point

1) CCCOc1c([N+](=O)[O-])cccc1[N+](=O)[O-]	119 to 120 °C
2) COCCSc1sc(-c2cc[nH]n2)c2c1C(=O)CC(C)(C)C2	159 to 162 °C
3) Cc1csc2c(Br)cc3cc(C(=O)O)[nH]c3c12	229 to 241 °C
4) CN(CCC(=O)C(Cc1ccccc1)NC(=O)c1ccccc1)C(=O)N1CCCC1C(=O)O (configuration not stated)	38 to 68 °C
5) O=S(=O)(Oc1ccc(Cl)c2cccnc12)C(F)(F)F	80 to 83 °C
6) COc1ccc(N2CCOCC2)c2sc(NC(=O)C[C@H]3CC[C@@H](OC(C)=O)C3)nc12 (relative stereo)	172 to 173 °C
7) COc1c(F)c(Oc2cc(C(F)(F)F)nn2C)nc(Oc2cc(C(F)(F)F)nn2C)c1F	83 °C
8) Cn1ncc(C(=O)N2CCCC2)c1C(=O)Nc1cc2nc(-c3ccccc3)nn2cc1F	250 to 251 °C
9) CN(C)CCNCCc1ccc(Nc2ncc3c(n2)-c2ccccc2C(c2cccc(Br)c2)C3)cc1 (configuration not stated)	75 to 77 °C
10) C#Cc1ccc2c(C(=O)c3ccc(OCCN4CCCCC4)cc3)c(-c3ccc(O)cc3)sc2c1	97 to 100 °C
11) Cc1nc(N2CCOCC2)c2n1-c1ccc(Cl)cc1C(c1ccccc1F)=NC2	172 to 174 °C
12) CCOC(=O)c1ccc(-c2c(F)ccc([N+](=O)[O-])c2F)cc1	85 to 86.7 °C

###

Overview of reported melting point across a group of compounds:
endpoint: melting point

1) CCCCc1nc2cccc(C(=O)O)c2n1Cc1ccc(-c2ccccc2-c2nnnn2C(c2ccccc2)(c2ccccc2)c2ccccc2)cc1	120 to 123 °C
2) Cc1ccc(Cl)c2sc(N)nc12	206 °C
3) CCCCSc1nsnc1OC1CCNC1 (stereo not given)	99 to 100 °C
4) CC(C)=NOCc1nc2c(N)nc3ccccc3c2n1CCNC(=O)NC(C)C	230 to 231 °C
5) O=C1CCCCCC1c1ncc[nH]1 (stereo not given)	68 to 69 °C
6) C=CC(O)(C(CCCCOc1ccccc1)n1cncn1)C(C)(C)C (stereo not given)	66 to 69 °C
7) CCCCCCCCOc1ccc(OCc2ccc(C(=O)OC3CCC(CCC)(CCC)OC3=O)cc2)cc1 (stereo not given)	65 °C
8) Cc1ccsc1-c1cncc(Br)c1	58 to 59 °C
9) CC(=O)Nc1cc(N2CCCCC2)nc(=N)n1O	204 to 205 °C
10) COC(=O)C1N(c2c(C)cccc2C)C(=N)C(C)N1c1c(C)cccc1C (stereo not given)	141 to 142 °C
11) Nc1c(C=O)cc(-n2cnnc2)cc1C(F)(F)F	234 to 236 °C
12) CC1CCN(CC#CCN2C(=O)c3cccc4c3N(CC4)c3ccccc32)CC1	157 to 158 °C
13) Cc1ccnc(NC(c2ccc(C(F)(F)F)cc2)c2ccc3cccnc3c2O)c1 (stereo not given)	104 to 107 °C
14) COc1ccc2[nH]c(=O)nc(C)c2c1OC	248 to 249 °C
15) CCN1CCCC1CNC(=O)c1c(C)[nH]c(C=O)c1C (stereo not given)	166 to 169 °C

###

Overview of reported melting point across a group of molecules:
endpoint: melting point

1) COc1ccccc1N1CCN(C[C@@H](O)CN)CC1	76 to 80 °C
2) O=C(O)Cc1ccc(CN2CCN(C(c3ccccc3)c3ccccc3)CC2)cc1	183 to 185 °C
3) C#Cc1cccc(-n2c(=O)oc3ccc(-c4ccc(F)cc4F)cc3c2=O)c1	195 to 196 °C
